Experiment: Pharmacokinetic study of oral resveratrol with or without curcumin in Bcrp1
Assay type: in vivo, Bcrp1 (−/−) mice (FVB background)
Conditions: FVB, mouse, whole blood, po, 20 mg/kg, Cmax, Bcrp1 (−/−) with curcumin; oral resveratrol 20mg/kg; blood
Parameter: Cmax. Scope: all listed entries.
observed_property: Cmax (nM)

>>> result("Oc1ccc(/C=C/c2cc(O)cc(O)c2)cc1 [Resveratrol, trans-3,5,4′-trihydroxystilbene]")
390
>>> result("O=S(=O)(O)Oc1cc(O)cc(C=Cc2ccc(O)cc2)c1 [R-3-S, resveratrol-3-O-sulfate]")
1800
